Test system: HEK293
PROCEDURE DETAILS: Selectivity ratio of Ki for cloned human GABA alpha-2-beta-3-gamma-2 receptor expressed in HEK293 cells to Ki for cloned human GABA alpha-5-beta-3-gamma-2 receptor expressed in HEK293 cells
Format: cell-based
Ratio Ki for assorted compounds
The response must contain the number and no unit.

Exercise: Given Cc1ncn2c1Cn1ncnc1-c1cc(Cl)ccc1-2 , respond with its Ratio Ki.
Key: 72

###

Ratio Ki for assorted compounds
Tested on: HEK293
PROCEDURE DETAILS: Selectivity ratio of Ki for cloned human GABA alpha-2-beta-3-gamma-2 receptor expressed in HEK293 cells to Ki for cloned human GABA alpha-5-beta-3-gamma-2 receptor expressed in HEK293 cells
Type: cell-based

Exercise: Given CCS(=O)(=O)c1ncn2c1Cn1ncnc1-c1cc(Cl)ccc1-2 , respond with its Ratio Ki.
Key: > 15

Exercise: Given Clc1ncn2c1Cn1ncnc1-c1cc(Br)ccc1-2 , respond with its Ratio Ki.
Key: 18

Exercise: Given Cc1ncn2c1Cn1ncnc1-c1cc(C(F)F)ccc1-2 , respond with its Ratio Ki.
Key: 62

Exercise: Given Cc1ccc2c(c1)-c1ncnn1Cc1c(C)ncn1-2 , respond with its Ratio Ki.
Key: 34

Exercise: Given CCCc1ncn2c1Cn1ncnc1-c1cc(Cl)ccc1-2 , respond with its Ratio Ki.
Key: 5

Exercise: Given Brc1ccc2c(c1)-c1ncnn1Cc1c(-c3cccs3)ncn1-2 , respond with its Ratio Ki.
Key: 22

Exercise: Given Cc1ncn2c1Cn1ncnc1-c1cc(I)ccc1-2 , respond with its Ratio Ki.
Key: 60

Exercise: Given Cc1ccc2c(c1)-c1ncnn1Cc1c(Cl)ncn1-2 , respond with its Ratio Ki.
Key: 23

Exercise: Given Cc1cccc(-c2ncn3c2Cn2ncnc2-c2cc(Cl)ccc2-3)n1 , respond with its Ratio Ki.
Key: 11

Exercise: Given Cn1nccc1-c1ncn2c1Cn1ncnc1-c1cc(Br)ccc1-2 , respond with its Ratio Ki.
Key: 35

Exercise: Given Cc1ncn2c1Cn1ncnc1-c1cc(OC(F)F)ccc1-2 , respond with its Ratio Ki.
Key: 53

Exercise: Given C#CCNC(=O)c1ncn2c1Cn1ncnc1-c1cc(F)ccc1-2 , respond with its Ratio Ki.
Key: 1

Exercise: Given Cc1ncn2c1Cn1ncnc1-c1cc(F)ccc1-2 , respond with its Ratio Ki.
Key: 3
